Assay: melting temperature; fluorescence melt of hairpins on a sequencing array, two-state fit, raised by 9.35 °C to match UV melts
Conditions: sodium 0.088 M
Rule: Tm under 40 °C gives 0, otherwise 1.

[
  {
    "Chain": "GATCAGCACCCTGATC ((((((....))))))",
    "Assigned class": 1
  },
  {
    "Chain": "GATCCTTTCTAGGATC ((((((....))))))",
    "Assigned class": 1
  },
  {
    "Chain": "GCGATGCGAAAGCATTGC ((.((((....)))).))",
    "Assigned class": 1
  }
]

With those in mind, consider the next sequence.
Textbook exercise: given the entry GATCGATTTCTCGATC ((((((....)))))) , state whether its Tm is greater than or equal to 40 °C.
1

###

Experiment: melting temperature; fluorescence melt of hairpins on a sequencing array, two-state fit, raised by 9.35 °C to match UV melts
Settings: sodium 0.088 M
Would you please tag the item yes (1) when its Tm is 50 °C or above, and no (0) when it is below?

[
  {
    "Chain": "GGAGACGAAAGTCACTCC ((((((....)))..)))",
    "Assigned class": "no (0)"
  },
  {
    "Chain": "GACCACGGAAACACGGTC ((((..(....)..))))",
    "Assigned class": "no (0)"
  },
  {
    "Chain": "GAGCATCCGAAAGGACTC (((..(((....))))))",
    "Assigned class": "no (0)"
  }
]

Quick check, Tm >= 50 °C? GTAAACGGAAACGTTTAC (((((((....)))))))
yes (1)

Quick check, Tm >= 50 °C? GCGTATACACGC ((((....))))
yes (1)

Tell me whether Tm is at least 50 °C here: GCTATCGGAAACAATAGC (((((.(....).)))))
no (0)

Given the entry GATCTATGAGTAGATC ((((((....)))))) , answer whether its Tm meets or surpasses 50 °C.
no (0)

Decide: Tm of GAGAAGGCGAAAGCCCTC (((..(((....)))))) >= 50 °C?
no (0)

Please tell me: is the sequence GAACAGGGAAACCTGTTC (((((((....))))))) at or over 50 °C in terms of Tm?
yes (1)

Check if Tm >= 50 °C (inclusive). Item: GATCGGCTTTCCGATC ((((((....))))))
yes (1)

Check the entry GCCACAGGAAACCGTGGC (((((.(....).))))) : does Tm equal or exceed 50 °C?
yes (1)

Form field: Tm at least 50 °C? Entry: GCCAGAGAAATCTGGC ((((((....))))))
yes (1)

Tm >= 50 °C for GATCAAGATTTTGATC ((((((....)))))) ?
no (0)

Can GTGTTGGGAAACCAACAC (((((((....))))))) be said to have Tm at or above 50 °C?
yes (1)

Please indicate if the recorded Tm for GATCTAAACTAGATC ((((((...)))))) meets or exceeds 50 °C.
no (0)

Tm >= 50 °C for GGAAACCGAAAGGTATCC (((.(((....))).))) ?
no (0)

Hello, I need to know if GTTACTGGAAACAGTAGC (.(((((....))))).) has measured Tm not below 50 °C. Thanks!
no (0)

Check the entry GCGTACTTACGC ((((....)))) : does Tm equal or exceed 50 °C?
yes (1)

###

Test: folding enthalpy; higher = less favourable; fluorescence melt of hairpins on a sequencing array, two-state fit
Details: sodium 0.088 M
# maps each entry to its folding enthalpy
State just the number; it will be interpreted in kcal/mol.

Use these answered entries as a reference point.
[
  {
    "Chain": "GCCAGCGAAAGCTACGGC ((((((....)))..)))",
    "Measurement name": "folding enthalpy",
    "Endpoint unit": "kcal/mol",
    "Reading": -19.9
  },
  {
    "Chain": "GAGCGGCGAAAGCCCTC (((.(((....))))))",
    "Measurement name": "folding enthalpy",
    "Endpoint unit": "kcal/mol",
    "Reading": -16.1
  },
  {
    "Chain": "GGATCGGGAAACTGGTCC (((.(.(....).).)))",
    "Measurement name": "folding enthalpy",
    "Endpoint unit": "kcal/mol",
    "Reading": -30.4
  },
  {
    "Chain": "GTACATCCGAAAGGATAC (((..(((....))))))",
    "Measurement name": "folding enthalpy",
    "Endpoint unit": "kcal/mol",
    "Reading": -12.1
  },
  {
    "Chain": "GTCGATGGAAACATCGGC (.(((((....))))).)",
    "Measurement name": "folding enthalpy",
    "Endpoint unit": "kcal/mol",
    "Reading": -42.2
  }
]

Consider GATCGCACCTGCGATC ((((((....)))))) . Its measured folding enthalpy is -32.3

Given item GCACATCCGAAAGGATGC (((..(((....)))))) , the value recorded as its folding enthalpy is -8.29

Value of measured folding enthalpy for the entry GCGTCGGTACGC ((((....)))) : -19.3

###

A collection of sequences and their measured folding enthalpy
Test: folding enthalpy; higher = less favourable; fluorescence melt of hairpins on a sequencing array, two-state fit
Conditions: sodium 0.088 M

Look over these answered cases.
[
  {
    "Chain": "GTAGCCGGAAACGGTTAC (((.(((....))).)))",
    "folding enthalpy": "-37.7 kcal/mol"
  },
  {
    "Chain": "GCGGTTGGAAACAATCGC (((.(((....))).)))",
    "folding enthalpy": "-40.8 kcal/mol"
  }
]

Summary for this sequence, GCGAAGCGAAAGCAGCGC (((..((....))..))) : folding enthalpy is -16.6 kcal/mol

The recorded folding enthalpy for GATCCCGGGGGGATC ((((((...)))))) is -35.4 kcal/mol

folding enthalpy for GCAACGCGAAAGCTTGGC ((.(.((....)).).)) is -11.5 kcal/mol

Reported folding enthalpy ( GACTAGGGAAACCTGGTC (((.(((....))).))) ) = -35.7 kcal/mol

###

Assay: melting temperature; fluorescence melt of hairpins on a sequencing array, two-state fit, raised by 9.35 °C to match UV melts
Conditions: sodium 0.088 M
Measurement name: Tm (°C)
Write it as a number; the unit °C goes unstated.

Worked set:
[
  {
    "Chain": "GATCCACAAGTGGATC ((((((....))))))",
    "Reading": 57.9
  },
  {
    "Chain": "GGATCTCGAAAGAGCTCC (((.(((....))).)))",
    "Reading": 44.5
  },
  {
    "Chain": "GTTCAGCGAAAGCTAAC (((.(((....))))))",
    "Reading": 36.4
  }
]

Then there is this sequence:
So, GGAGTATCGAAAGATTCC (((..(((....)))))) ? Its Tm was 26.6

###

Experiment: melting temperature; fluorescence melt of hairpins on a sequencing array, two-state fit, raised by 9.35 °C to match UV melts
Conditions: sodium 0.088 M
Measurement name: Tm (°C)
Please reply with the bare figure in °C and do not write the unit itself.

Worked examples, 3 sequences total:
[
  {
    "Chain": "GGCTACCCGAAAGGGGCC (((..(((....))))))",
    "Endpoint unit": "°C",
    "Tm": 50.6
  },
  {
    "Chain": "GCAAAACGAAAGTTGTGC (((.(((....))).)))",
    "Endpoint unit": "°C",
    "Tm": 49.1
  },
  {
    "Chain": "CGGATCGGAAACGACCCG (((.(((....))).)))",
    "Endpoint unit": "°C",
    "Tm": 50
  }
]

Now examine the next entry.
The recorded Tm for entry GGGTGCGAAAGCAATCCC ((((((....)))..))) equals 50.6

###

Experiment: melting temperature; fluorescence melt of hairpins on a sequencing array, two-state fit, raised by 9.35 °C to match UV melts
Conditions: sodium 0.088 M
Measurement name: Tm

[
  {
    "Chain": "GATCCTTGAAGGATC ((((((...))))))",
    "Measurement name": "Tm",
    "Reading": "51.2 °C"
  }
]

The reported Tm of the sequence GATCGAAGGGTCGATC ((((((....)))))) was 50.6 °C

The sequence listed as GATCCTAATGAGGATC ((((((....)))))) shows Tm equal to 50.5 °C

Lab note: GCAGGCGAAAGCCAATGC ((((((....)))..))) gave Tm of 49.1 °C

So, GCCTAGCGAAAGCTAAGC ((.((((....)))).)) ? Its Tm was 48.9 °C
